Origin of measurements: paper PMC5119973

target: p38-beta (Homo sapiens); test: KINOMEscan active-site competitive binding assay; conditions: slash = two separate measurements
Sequence (Q15759 whole entry): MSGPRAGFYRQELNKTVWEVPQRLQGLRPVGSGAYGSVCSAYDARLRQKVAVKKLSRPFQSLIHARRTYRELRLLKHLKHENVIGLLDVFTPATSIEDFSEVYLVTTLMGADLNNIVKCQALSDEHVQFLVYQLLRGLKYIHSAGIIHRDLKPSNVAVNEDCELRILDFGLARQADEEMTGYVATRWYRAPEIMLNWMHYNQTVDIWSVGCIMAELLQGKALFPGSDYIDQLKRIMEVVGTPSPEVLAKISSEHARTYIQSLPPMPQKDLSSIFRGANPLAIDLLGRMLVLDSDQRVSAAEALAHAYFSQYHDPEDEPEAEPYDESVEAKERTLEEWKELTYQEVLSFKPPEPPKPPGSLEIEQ
For each entry below, report its Kd value.
API: value field is a number in nM; no unit string.

Specify Kd for NC(=O)c1cc(Oc2ccc(NC(=O)Nc3ccc(Cl)c(C(F)(F)F)c3)c(F)c2)cc[n+]1[O-] and stop.
25

Return Kd (reported value) for this compound: CNC(=O)c1cc(Oc2ccc(NC(=O)Nc3ccc(Cl)c(C(F)(F)F)c3)c(F)c2)cc[n+]1[O-]
8.7

* * *

So I've got a bunch of molecules here, and I need their pKd values.
target: FLT3^N841I (Homo sapiens, UniProt P36888, N841I); experiment: KINOMEscan active-site competitive binding assay
pKd here: minus log base 10 of the concentration, concentration in moles per litre.

Tell me its pKd given NC(=O)c1cc(Oc2ccc(NC(=O)Nc3ccc(Cl)c(C(F)(F)F)c3)c(F)c2)cc[n+]1[O-] [M‐5] as the entry.
7.64

Recall and state the measured pKd for CNC(=O)c1cc(Oc2ccc(NC(=O)Nc3ccc(Cl)c(C(F)(F)F)c3)c(F)c2)cc[n+]1[O-] [M‐2] .
7.47

* * *

I'd appreciate it if you could supply pKd values for the items below.
target: TIE-1 (Homo sapiens, UniProt P35590); assay: KINOMEscan active-site competitive binding assay; details: slash = two separate measurements
Sequence (P35590 22-1138): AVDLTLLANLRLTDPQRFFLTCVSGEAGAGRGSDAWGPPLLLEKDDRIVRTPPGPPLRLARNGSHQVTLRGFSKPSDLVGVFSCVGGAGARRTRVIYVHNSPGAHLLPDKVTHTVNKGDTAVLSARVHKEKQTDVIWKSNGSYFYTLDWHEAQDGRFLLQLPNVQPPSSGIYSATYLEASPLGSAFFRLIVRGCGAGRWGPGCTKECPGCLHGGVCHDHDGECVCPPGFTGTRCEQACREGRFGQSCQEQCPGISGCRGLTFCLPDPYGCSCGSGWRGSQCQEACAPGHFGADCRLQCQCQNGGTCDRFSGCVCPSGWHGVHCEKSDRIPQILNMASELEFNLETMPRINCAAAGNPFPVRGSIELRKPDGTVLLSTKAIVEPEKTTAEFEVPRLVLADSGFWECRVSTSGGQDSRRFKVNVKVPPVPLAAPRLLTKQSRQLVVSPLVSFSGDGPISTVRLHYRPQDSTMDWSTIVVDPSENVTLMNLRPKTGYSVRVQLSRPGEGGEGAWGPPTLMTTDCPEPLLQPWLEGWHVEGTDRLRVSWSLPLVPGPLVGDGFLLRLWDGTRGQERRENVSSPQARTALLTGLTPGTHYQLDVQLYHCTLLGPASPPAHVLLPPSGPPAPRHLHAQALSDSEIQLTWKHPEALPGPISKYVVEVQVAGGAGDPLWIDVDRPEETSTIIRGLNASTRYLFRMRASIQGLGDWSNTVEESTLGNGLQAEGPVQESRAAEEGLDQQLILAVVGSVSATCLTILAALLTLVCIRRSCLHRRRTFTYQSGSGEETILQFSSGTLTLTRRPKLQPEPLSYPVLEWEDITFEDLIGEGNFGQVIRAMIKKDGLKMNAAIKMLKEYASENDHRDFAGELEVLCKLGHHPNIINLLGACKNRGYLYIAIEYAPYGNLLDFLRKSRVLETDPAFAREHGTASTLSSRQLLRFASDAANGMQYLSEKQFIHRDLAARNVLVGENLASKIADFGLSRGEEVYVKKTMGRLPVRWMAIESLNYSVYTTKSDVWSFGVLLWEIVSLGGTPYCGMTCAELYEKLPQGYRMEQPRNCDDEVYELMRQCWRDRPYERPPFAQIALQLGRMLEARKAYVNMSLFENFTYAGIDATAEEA
Formally, pKd is defined as -log10 of the concentration c, with c in mol/L.

Answer briefly: pKd recorded on TIE-1 (Homo sapiens, UniProt P35590) for NC(=O)c1cc(Oc2ccc(NC(=O)Nc3ccc(Cl)c(C(F)(F)F)c3)c(F)c2)cc[n+]1[O-]
7.14

State recorded pKd with TIE-1 (Homo sapiens, UniProt P35590), entry CNC(=O)c1cc(Oc2ccc(NC(=O)Nc3ccc(Cl)c(C(F)(F)F)c3)c(F)c2)cc[n+]1[O-] , no comment.
7.32

* * *

target: TAOK3 (Homo sapiens, UniProt Q9H2K8); assay: KINOMEscan active-site competitive binding assay; conditions: slash = duplicate values
Sequence (Q9H2K8 whole entry): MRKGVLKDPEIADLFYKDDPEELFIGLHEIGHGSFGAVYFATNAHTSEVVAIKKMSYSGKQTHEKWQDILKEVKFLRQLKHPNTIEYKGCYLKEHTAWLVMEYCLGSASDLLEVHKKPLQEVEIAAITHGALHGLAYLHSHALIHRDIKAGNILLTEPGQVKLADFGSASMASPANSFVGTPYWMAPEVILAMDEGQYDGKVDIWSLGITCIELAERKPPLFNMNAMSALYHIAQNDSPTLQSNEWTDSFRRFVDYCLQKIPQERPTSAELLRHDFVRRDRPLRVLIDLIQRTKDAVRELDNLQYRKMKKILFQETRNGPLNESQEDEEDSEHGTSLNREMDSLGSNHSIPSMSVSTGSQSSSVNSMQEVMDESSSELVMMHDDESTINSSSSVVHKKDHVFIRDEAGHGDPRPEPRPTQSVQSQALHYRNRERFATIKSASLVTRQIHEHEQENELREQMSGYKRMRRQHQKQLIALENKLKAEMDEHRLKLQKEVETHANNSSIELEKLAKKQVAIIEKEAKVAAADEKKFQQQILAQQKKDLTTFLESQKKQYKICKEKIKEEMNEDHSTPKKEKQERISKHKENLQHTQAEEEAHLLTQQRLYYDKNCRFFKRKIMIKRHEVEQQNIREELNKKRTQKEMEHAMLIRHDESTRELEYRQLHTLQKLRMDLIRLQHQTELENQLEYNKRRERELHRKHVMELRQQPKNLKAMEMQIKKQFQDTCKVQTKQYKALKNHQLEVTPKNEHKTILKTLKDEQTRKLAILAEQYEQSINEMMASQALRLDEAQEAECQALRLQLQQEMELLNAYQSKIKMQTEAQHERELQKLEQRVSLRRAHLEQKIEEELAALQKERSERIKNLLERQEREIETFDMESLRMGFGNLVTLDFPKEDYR
parameter: Kd (nM)
Note: unit nM is implicit; provide only the numeric part.

Determine its reported Kd: NC(=O)c1cc(Oc2ccc(NC(=O)Nc3ccc(Cl)c(C(F)(F)F)c3)c(F)c2)cc[n+]1[O-] [M‐5]
450

* * *

target: BRAF (Homo sapiens); experiment: KINOMEscan active-site competitive binding assay; conditions: slash = two separate measurements
Sequence (P15056 whole entry): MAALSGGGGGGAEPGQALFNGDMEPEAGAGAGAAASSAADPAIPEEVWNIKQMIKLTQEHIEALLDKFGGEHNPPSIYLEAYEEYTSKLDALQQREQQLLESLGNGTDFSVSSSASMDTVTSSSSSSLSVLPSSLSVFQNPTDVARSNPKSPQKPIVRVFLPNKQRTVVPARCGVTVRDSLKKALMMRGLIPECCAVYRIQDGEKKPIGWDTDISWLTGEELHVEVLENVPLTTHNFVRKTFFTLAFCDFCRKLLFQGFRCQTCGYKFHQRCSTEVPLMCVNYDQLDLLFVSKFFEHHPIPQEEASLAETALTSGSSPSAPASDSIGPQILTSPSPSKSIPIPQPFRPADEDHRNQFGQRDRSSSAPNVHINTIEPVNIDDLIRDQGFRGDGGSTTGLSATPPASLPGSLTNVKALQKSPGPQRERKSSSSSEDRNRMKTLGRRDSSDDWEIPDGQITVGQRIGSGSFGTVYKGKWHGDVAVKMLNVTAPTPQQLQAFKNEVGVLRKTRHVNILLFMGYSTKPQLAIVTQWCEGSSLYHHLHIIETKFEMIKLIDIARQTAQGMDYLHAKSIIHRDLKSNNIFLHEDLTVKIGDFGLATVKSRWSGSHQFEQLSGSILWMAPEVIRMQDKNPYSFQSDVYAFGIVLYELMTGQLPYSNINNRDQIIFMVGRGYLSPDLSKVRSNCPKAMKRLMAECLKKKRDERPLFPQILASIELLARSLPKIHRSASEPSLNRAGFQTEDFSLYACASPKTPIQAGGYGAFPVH
parameter: pKd
Scale: negative log10 of molar concentration, which is what pKd denotes.

Tell me pKd reported for CNC(=O)c1cc(Oc2ccc(NC(=O)Nc3ccc(Cl)c(C(F)(F)F)c3)c(F)c2)cc[n+]1[O-]
7.62

Give the value of pKd reported for the following: NC(=O)c1cc(Oc2ccc(NC(=O)Nc3ccc(Cl)c(C(F)(F)F)c3)c(F)c2)cc[n+]1[O-]
7.77

* * *

Could you please report measured Kd for the items listed next?
molecular target: RET^V804M (Homo sapiens, UniProt P07949, V804M); assay: KINOMEscan active-site competitive binding assay
Sequence (P07949 29-1114 V804M): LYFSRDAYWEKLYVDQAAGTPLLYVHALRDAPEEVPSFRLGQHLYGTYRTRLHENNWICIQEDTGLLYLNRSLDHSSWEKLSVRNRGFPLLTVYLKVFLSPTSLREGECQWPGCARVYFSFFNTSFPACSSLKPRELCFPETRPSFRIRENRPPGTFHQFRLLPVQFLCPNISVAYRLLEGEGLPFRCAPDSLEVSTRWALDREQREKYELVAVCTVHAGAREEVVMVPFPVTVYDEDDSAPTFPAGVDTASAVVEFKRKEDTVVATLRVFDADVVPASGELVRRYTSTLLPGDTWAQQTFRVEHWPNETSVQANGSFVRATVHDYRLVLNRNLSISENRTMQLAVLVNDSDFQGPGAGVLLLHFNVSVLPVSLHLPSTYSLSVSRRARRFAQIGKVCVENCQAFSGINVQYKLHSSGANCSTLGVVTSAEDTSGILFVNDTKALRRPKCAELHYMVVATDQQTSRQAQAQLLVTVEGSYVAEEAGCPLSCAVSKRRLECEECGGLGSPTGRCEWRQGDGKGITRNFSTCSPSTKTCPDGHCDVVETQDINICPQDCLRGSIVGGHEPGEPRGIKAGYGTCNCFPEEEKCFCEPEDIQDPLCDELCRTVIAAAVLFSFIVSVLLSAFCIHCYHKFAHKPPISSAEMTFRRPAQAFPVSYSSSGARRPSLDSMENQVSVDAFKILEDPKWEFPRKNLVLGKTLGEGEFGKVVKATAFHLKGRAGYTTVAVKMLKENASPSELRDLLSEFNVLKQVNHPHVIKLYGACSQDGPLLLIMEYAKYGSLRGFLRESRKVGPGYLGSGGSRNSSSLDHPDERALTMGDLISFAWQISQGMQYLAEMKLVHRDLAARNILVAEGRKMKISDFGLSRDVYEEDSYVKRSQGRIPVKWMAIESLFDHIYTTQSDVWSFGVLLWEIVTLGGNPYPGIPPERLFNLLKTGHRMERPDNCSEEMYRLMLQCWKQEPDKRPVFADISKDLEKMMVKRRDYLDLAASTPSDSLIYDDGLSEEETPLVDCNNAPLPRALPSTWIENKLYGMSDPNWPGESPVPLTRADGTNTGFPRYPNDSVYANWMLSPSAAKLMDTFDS
Give the value, in units of µM, as a plain number.

Using the record for NC(=O)c1cc(Oc2ccc(NC(=O)Nc3ccc(Cl)c(C(F)(F)F)c3)c(F)c2)cc[n+]1[O-] , state its measured Kd.
0.025

Retrieve Kd measured for CNC(=O)c1cc(Oc2ccc(NC(=O)Nc3ccc(Cl)c(C(F)(F)F)c3)c(F)c2)cc[n+]1[O-] and print it.
0.02
